Measured IC50 values are reported for all entries that follow.
Test system: IL-17 production, human PBMC cells
experimental_protocol: IL-17 production assay using human PBMC
Assay type: cell-based
experimental_conditions: Homo sapiens, PBMC, 72 h, human PBMC stimulated by cytostim for 3 days, IL-17 ELISA of supernatant
Provide only the numeric value, understood in µM.

The cases that follow already have their IC50 on record.
NC(=O)CC(c1ccc(S(=O)(=O)CC2CC2)cc1)c1nc2cc(Cl)c(N3CCC(F)(F)CC3)c(Cl)c2[nH]1 (stereo not shown) [Example 154]	0.077
CCS(=O)(=O)c1ccc(C(O)c2nc3c(Cl)c(-c4ccccc4OCC(F)(F)F)c(Cl)cc3[nH]2)cc1 (stereo not shown) [Example 33]	0.015
O=S(=O)(CC1CC1)c1ccc(Cc2nc3cc(Cl)c(N4CCC(F)(F)CC4)c(Cl)c3[nH]2)cc1 [Example 127]	0.013
CC(C)Oc1ccccc1-c1cc2nc(C(CC(N)=O)c3ccc(S(=O)(=O)CC4CC4)cc3)[nH]c2cc1Cl (stereo not shown) [Example 143]	0.027
CCS(=O)(=O)c1ccc(C(CO)c2nc3c(Cl)c(-c4ccccc4OCC(F)(F)F)c(Cl)cc3[nH]2)cc1 (stereo not shown) [Example 32]	0.007
O=S(=O)(NC1CC1)c1ccc(C(CO)c2nc3c(Cl)c(-c4ccccc4OC(F)(F)F)c(Cl)cc3[nH]2)cc1 (stereo not shown) [Example 123]	0.058

Then this molecule:
Notebook: CCS(=O)(=O)c1ccc(Cc2nc3c(Cl)c(-c4ccccc4CCC(F)(F)F)c(Cl)cc3[nH]2)cc1 [Example 34] , IC50 read as 0.049
